Assign pIC50 to each entry below.
- Test protocol: Inhibition of VCAM-1 in human endothelial cells
pIC50: −log10 of the molar value.

query: State its pIC50: `NC(=O)c1cc2c(Oc3cccc(C(F)(F)F)c3)cncc2s1`
result: < 6.00

query: Read the entry `NC(=O)c1cc2c(Oc3ccc(Br)cc3)cncc2s1` and write its reported pIC50.
result: 7.32

query: Give a short answer stating reported pIC50 for `COCCOCc1ccc(Oc2cncc3sc(C(N)=O)cc23)cc1` .
result: < 6.00

query: Assign pIC50 to the following record: `CNC(=O)c1cc2c(Oc3ccc(-c4cncn4C)cc3)cncc2s1`
result: < 6.74

###

For each of the molecules below, state its pIC50.
- Test protocol: Inhibition of VCAM-1 in human endothelial cells
pIC50: −log10 of the molar value.

query: For the molecule `CNC(=O)c1cc2c(Oc3ccc(/C=C/C(=O)NCCN(CCO)CCO)cc3)cncc2s1` , report pIC50.
result: < 6.00

query: Output measured pIC50 for this item: NC(=O)c1cc2c(Oc3ccc(C(O)CO)cc3)cncc2s1 (configuration not stated)
result: 6.03

query: State its pIC50: `NC(=O)c1cc2c(Oc3ccc(/C=C/C(=O)NCCN4CCOCC4)cc3)cncc2s1`
result: < 6.00

query: Indicate the recorded pIC50 value for this molecule: `NC(=O)c1cc2c(Oc3cccc(Br)c3)cncc2s1`
result: < 6.00

query: Kindly indicate its recorded pIC50. Item: `CCOC(=O)c1ccc(Oc2cncc3sc(C(N)=O)cc23)cc1`
result: < 6.00

query: // Input: `Cc1cc(Cl)ccc1Oc1cncc2sc(C(N)=O)cc12` . Output its pIC50 only.
result: < 6.00

query: Quickly give me recorded pIC50 for `NC(=O)c1cc2c(Oc3ccc(I)cc3)cncc2s1`
result: < 8.00
